# TEST SYSTEM: T1, Ala mutant of TA0096, SEQ ID NO: 27
# T1 peptide: AENMDDQWMQDEMEIGY
# PROTOCOL DETAILS: ELISA, coated peptide
Give OD 490/630 nm for every item shown.

-- ask Look at this binder and give its reported OD 490/630 nm. G6 (antibody, V domains shown, Chicken variable regions in a mouse chimeric antibody (IgG1); also called anti-PAD4 antibody G6) VH: AVTLDESGGGLQTPGGALSLVCKASGFTFSSYGMEWVRQAPGKGLEYVAAIRNDGSWTGYGAAVKGRATISRDDGQSTLRLQLNNLRAEDTATYYCAKTTGSSGGSIDAWGHGTEVIVS VL: ASTQPSSVSANLGETVKITCSGGGNYYYGWYQQKSPGSAPVTLIYANDKRPSNIPSRFSGSKSGSTGTLTITGVQAEDEAVYFCGTADTGKYVFGAGTTLTVL
-- reply 1.91

-- ask Look at this binder and give its reported OD 490/630 nm. G9 (antibody, V domains shown, Chicken variable regions in a mouse chimeric antibody (IgG1); also called anti-PAD4 antibody G9) VH: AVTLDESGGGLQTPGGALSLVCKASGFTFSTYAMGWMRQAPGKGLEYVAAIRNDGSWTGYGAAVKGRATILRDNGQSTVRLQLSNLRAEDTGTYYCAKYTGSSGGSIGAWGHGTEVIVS VL: AVTQPASVSANLGGTVEITCSGGGRYYYGWYQQKSPGSAPVTVIYANDKRPSDIPSRFSGSKSGSTGTLTITGVQAEDEAVYFCGSAETSSYVFGAGTTLTVL
-- reply 1.93

-- ask Look at this binder and give its reported OD 490/630 nm. H7 (antibody, V domains shown, Chicken variable regions in a mouse chimeric antibody (IgG1); also called anti-PAD4 antibody H7) VH: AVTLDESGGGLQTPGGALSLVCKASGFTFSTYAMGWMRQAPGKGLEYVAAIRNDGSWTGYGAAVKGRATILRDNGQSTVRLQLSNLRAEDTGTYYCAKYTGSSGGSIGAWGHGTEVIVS VL: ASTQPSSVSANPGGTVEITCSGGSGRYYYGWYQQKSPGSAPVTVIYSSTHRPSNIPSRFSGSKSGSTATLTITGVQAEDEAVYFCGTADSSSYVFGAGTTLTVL
-- reply 1.9
